Test: Murine plasma pharmacokinetics assay
Format: in vivo, NIH-III nude mice
Conditions: female, NIH-III nude, mouse, plasma, ip, 40 mg/kg, 40 mg/kg intraperitoneal, plasma; read-out: Tmax-obs
READOUT LABEL: Tmax (h)

INSERT INTO results (molecule, measured_number) VALUES
  ('COc1cc(OC)c(Cl)c(N2Cc3cnc(Nc4ccccc4)nc3N(C3CCN(C(=O)/C=C/C[N+](C)(C)Cc4c([N+](=O)[O-])ncn4C)CC3)C2=O)c1Cl.[Br-] [Compound 204]', 2);

* * *

Tested on: SUM52 cells
Assay: Oxic and anoxic anti-proliferative activity of the prodrugs
Conditions: ratio of oxic and anoxic IC50
# thresholds on Hypoxic Cytotoxicity Ratio (HCR), SUM52 define classes: lower bin: < 6; middle bin: ≥ 6 and < 50; upper bin: ≥ 50

INSERT INTO results (molecule, label_value) VALUES
  ('COc1cc(OC)c(Br)c(N2Cc3cnc(NC(C)C)nc3N(C3CCN(C(=O)/C=C/C[N+](C)(C)Cc4c([N+](=O)[O-])ncn4C)CC3)C2=O)c1Br.[Br-] [Compound 207]', 'upper bin'),
  ('COc1cc(OC)c(Br)c(-c2cc3cnc(NC(C)C)cc3n(C3CCN(C(=O)/C=C/C[N+](C)(C)Cc4c([N+](=O)[O-])ncn4C)CC3)c2=O)c1Br.[Br-] [Compound 216]', 'upper bin'),
  ('CNc1ncc2cc(-c3c(Cl)c(OC)cc(OC)c3Cl)c(=O)n(C3CCN(C(=O)/C=C/C[N+](C)(C)Cc4c([N+](=O)[O-])ncn4C)CC3)c2n1.[Br-] [Compound 208]', 'lower bin'),
  ('COc1cc(OC)c(Cl)c(-c2cc3cnc(NC(C)C)nc3n(C3CCN(C(=O)/C=C/C[N+](C)(C)Cc4c([N+](=O)[O-])ncn4C)CC3)c2=O)c1Cl.[Br-] [Compound 209]', 'upper bin'),
  ('COc1cc(OC)c(Cl)c(N2Cc3cnc(Nc4ccccc4)nc3N(C3CCN(C(=O)/C=C/C[N+](C)(C)Cc4c([N+](=O)[O-])ncn4C)CC3)C2=O)c1Cl.[Br-] [Compound 204]', 'middle bin'),
  ('COc1cc(OC)cc(N2Cc3cnc(Nc4ccc(N5CCOCC5)cc4)nc3N(C3CCN(C(=O)/C=C/C[N+](C)(C)Cc4c([N+](=O)[O-])ncn4C)CC3)C2=O)c1.[Br-] [Compound 220]', 'middle bin'),
  ('COc1cc(OC)c(Cl)c(N2Cc3cnc(Nc4ccc(N5CCOCC5)cc4)nc3N(C3CCN(C(=O)/C=C/C[N+](C)(C)Cc4c([N+](=O)[O-])ncn4C)CC3)C2=O)c1Cl.[Br-] [Compound 218]', 'lower bin'),
  ('COc1cc(OC)c(Cl)c(N2Cc3cnc(NC(C)C)nc3N([C@H]3CCN(C(=O)/C=C/C[N+](C)(C)Cc4c([N+](=O)[O-])ncn4C)C3)C2=O)c1Cl.[Br-] [Compound 201]', 'middle bin'),
  ('COc1cc(OC)c(Cl)c(-c2cc3cnc(NC(C)C)nc3n(Cc3cccc(NC(=O)/C=C/C[N+](C)(C)Cc4c([N+](=O)[O-])ncn4C)c3)c2=O)c1Cl.[Br-] [Compound 213]', 'lower bin');

* * *

Assay: Murine plasma pharmacokinetics assay
Format: in vivo, NIH-III nude mice
Conditions: female, NIH-III nude, mouse, plasma, ip, 40 mg/kg, 40 mg/kg intraperitoneal, plasma, elimination phase; read-out: T1/2 (converted)
READOUT LABEL: half-life (h)

INSERT INTO assay_data (molecule, readout_label, quantity_unit, measured_number) VALUES
  ('COc1cc(OC)c(Cl)c(N2Cc3cnc(Nc4ccccc4)nc3N(C3CCN(C(=O)/C=C/C[N+](C)(C)Cc4c([N+](=O)[O-])ncn4C)CC3)C2=O)c1Cl.[Br-] [Compound 204]', 'half-life', 'h', 1.21);

* * *

Test system: H520 cells
Experiment: Oxic and anoxic anti-proliferative activity of the prodrugs
Conditions: ratio of oxic and anoxic IC50
Listed here: items and their measured Hypoxic Cytotoxicity Ratio (HCR), H520.
READOUT LABEL: Hypoxic Cytotoxicity Ratio (HCR), H520

INSERT INTO assay_data (smiles_entry, experimental_target, measured_number) VALUES
  ('COc1cc(OC)c(Cl)c(-c2cc3cnc(NC(C)C)cc3n(C3CCN(C(=O)/C=C/C[N+](C)(C)Cc4c([N+](=O)[O-])ncn4C)CC3)c2=O)c1Cl.[Br-]', 'H520 cells', 19),
  ('COc1cc(OC)c(Cl)c(-c2cc3cnc(NC(C)C)nc3n(C3CCN(C(=O)/C=C/C[N+](C)(C)Cc4c([N+](=O)[O-])ncn4C)CC3)c2=O)c1Cl.[Br-]', 'H520 cells', 36),
  ('COc1cc(OC)c(Cl)c(-c2cc3cnc(Nc4ccccc4)nc3n(C3CCN(C(=O)/C=C/C[N+](C)(C)Cc4c([N+](=O)[O-])ncn4C)CC3)c2=O)c1Cl.[Br-]', 'H520 cells', 20),
  ('COc1cc(OC)c(Cl)c(N2Cc3cnc(Nc4ccccc4)nc3N(C3CCN(C(=O)/C=C/C[N+](C)(C)Cc4c([N+](=O)[O-])ncn4C)CC3)C2=O)c1Cl.[Br-]', 'H520 cells', 27);

* * *

Assay: Murine plasma pharmacokinetics assay
Type: in vivo, NIH-III nude mice
Settings: female, NIH-III nude, mouse, plasma, ip, 40 mg/kg, 40 mg/kg intraperitoneal, plasma, model fit; read-out: Cmax
READOUT LABEL: Cmax (µM)

INSERT INTO measurements (smiles_entry, readout_label, measured_number) VALUES
  ('COc1cc(OC)c(Cl)c(N2Cc3cnc(Nc4ccccc4)nc3N(C3CCN(C(=O)/C=C/C[N+](C)(C)Cc4c([N+](=O)[O-])ncn4C)CC3)C2=O)c1Cl.[Br-]', 'Cmax', 54.9);

* * *

Listing of recorded IC50 by entry.
System: FGFR2-amplified SUM52 breast cancer cells
Test: Cell proliferation assay (SRB)
Format: cell-based
Conditions: read-out: Cellular Anti-proliferative IC50, SUM52; 5 days drug exposure
READOUT LABEL: IC50 (nM)

INSERT INTO results (compound, readout_label, measured_number) VALUES
  ('CNc1ncc2c(n1)N([C@H]1CCCN(C(=O)/C=C/CN(C)C)C1)C(=O)N(c1c(Cl)c(OC)cc(OC)c1Cl)C2 [Compound 101]', 'IC50', 9),
  ('CNc1ncc2c(n1)N([C@H]1CCCN(C(=O)/C=C/CN(C)C)C1)C(=O)N(c1c(Cl)c(OC)cc(OC)c1Cl)C2 [Compound 100]', 'IC50', 3.3);

* * *

Target: FGFR4 (Homo sapiens, UniProt P22455)
Sequence (P22455 22-802): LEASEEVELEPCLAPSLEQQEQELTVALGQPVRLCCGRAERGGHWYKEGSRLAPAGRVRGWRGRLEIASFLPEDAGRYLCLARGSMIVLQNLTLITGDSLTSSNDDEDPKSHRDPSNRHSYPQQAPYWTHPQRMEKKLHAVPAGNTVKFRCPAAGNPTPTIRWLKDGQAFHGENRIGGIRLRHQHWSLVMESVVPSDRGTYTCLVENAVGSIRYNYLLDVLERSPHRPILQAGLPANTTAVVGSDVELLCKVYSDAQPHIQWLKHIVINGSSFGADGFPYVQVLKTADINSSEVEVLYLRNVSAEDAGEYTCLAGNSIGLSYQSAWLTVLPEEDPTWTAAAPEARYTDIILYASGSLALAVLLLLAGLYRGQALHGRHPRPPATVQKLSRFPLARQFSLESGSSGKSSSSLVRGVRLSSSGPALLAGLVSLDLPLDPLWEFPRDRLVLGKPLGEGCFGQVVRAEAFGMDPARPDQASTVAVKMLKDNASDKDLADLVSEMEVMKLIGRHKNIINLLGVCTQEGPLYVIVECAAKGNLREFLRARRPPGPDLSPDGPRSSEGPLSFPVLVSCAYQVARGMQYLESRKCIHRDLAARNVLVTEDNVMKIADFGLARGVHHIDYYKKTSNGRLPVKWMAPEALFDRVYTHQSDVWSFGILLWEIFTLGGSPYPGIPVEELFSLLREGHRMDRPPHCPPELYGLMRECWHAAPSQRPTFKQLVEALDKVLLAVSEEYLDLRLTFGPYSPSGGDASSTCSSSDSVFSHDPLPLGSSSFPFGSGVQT
Experiment: Isolated enzyme FRET-based Z-Lyte kinase inhibition assay
Conditions: means from 3 independent experiments; read-out: Isolate Enzyme Inhibition IC50, FGFR4
READOUT LABEL: IC50 (nM)

INSERT INTO assay_data (smiles_entry, experimental_target, readout_label, quantity_unit, comparative_sign, measured_number) VALUES
  ('CNc1ncc2c(n1)N(CCCNC(=O)/C=C/CN(C)C)C(=O)N(c1c(Cl)c(OC)cc(OC)c1Cl)C2', 'FGFR4 (Homo sapiens, UniProt P22455)', 'IC50', 'nM', '>', 1000),
  ('COc1cc(OC)c(Cl)c(N2Cc3cnc(NC4CCCCC4)nc3N([C@H]3CCN(C(=O)/C=C/CN(C)C)C3)C2=O)c1Cl', 'FGFR4 (Homo sapiens, UniProt P22455)', 'IC50', 'nM', '=', 729),
  ('CNc1ncc2c(n1)N([C@H]1CCN(C(=O)/C=C/CN(C)C)C1)C(=O)N(c1c(Cl)c(OC)cc(OC)c1Cl)C2', 'FGFR4 (Homo sapiens, UniProt P22455)', 'IC50', 'nM', '=', 287),
  ('CNc1ncc2c(n1)N([C@H]1CCCN(C(=O)/C=C/CN(C)C)C1)C(=O)N(c1c(Cl)c(OC)cc(OC)c1Cl)C2', 'FGFR4 (Homo sapiens, UniProt P22455)', 'IC50', 'nM', '<', 100),
  ('CNc1ncc2c(n1)N([C@@H]1CCN(C(=O)/C=C/CN(C)C)C1)C(=O)N(c1c(Cl)c(OC)cc(OC)c1Cl)C2', 'FGFR4 (Homo sapiens, UniProt P22455)', 'IC50', 'nM', '>', 1000),
  ('COc1cc(OC)c(Cl)c(N2Cc3cnc(NC(C)C)nc3N([C@H]3CCN(C(=O)/C=C/CN(C)C)C3)C2=O)c1Cl', 'FGFR4 (Homo sapiens, UniProt P22455)', 'IC50', 'nM', '=', 906);

* * *

Assay: Murine plasma pharmacokinetics assay
Assay type: in vivo, NIH-III nude mice
Settings: female, NIH-III nude, mouse, plasma, ip, 80 mg/kg, doses of 40 and 80 mg/kg intraperitoneal; read-out: plasma half-life
READOUT LABEL: half-life

INSERT INTO results (smiles_entry, readout_label, result) VALUES
  ('COc1cc(OC)c(Cl)c(N2Cc3cnc(Nc4ccccc4)nc3N(C3CCN(C(=O)/C=C/C[N+](C)(C)Cc4c([N+](=O)[O-])ncn4C)CC3)C2=O)c1Cl.[Br-]', 'half-life', '1.2 to 1.8 h');
